- method: Oral bioavailability in C57BL/6 mouse at 2 mg/kg
- Assay type: ADME, organism-based
- assay.setup: in vivo
reported.property: bioavailability (%)
Express your answer in %, writing the number without its unit.

Ask | Need bioavailability, item `O=C1COc2ccc(CNC34CCC(C[C@]5(O)Cn6c(=O)ccc7ncc(F)c5c76)(CC3)OC4)nc2N1`
Reply | 40

* * *

# Lookup of reported MIC keyed by entry
- Tested on: Moraxella catarrhalis
- method: Antimicrobial activity against Moraxella catarrhalis ATCC 25238 by micro broth dilution or agar based method
- Assay type: functional

// solved cases for MIC follow
- Cc1cc(=O)n2c3c(c(F)cnc13)[C@](O)(CC13CCC(NCc4ccc5c(n4)NC(=O)CO5)(CC1)CO3)C2: 0.5 µg/mL
- COc1ccc2ncc(F)c(C[C@H](O)C34CCC(NCc5ccc6c(n5)NC(=O)CO6)(CC3)CO4)c2n1: 0.015 µg/mL
- O=C1COc2ccc(CNC34CCC(C[C@]5(O)Cn6c(=O)ccc7ncc(F)c5c76)(CC3)OC4)nc2N1: 0.25 µg/mL
- O=C1COc2ccc(CNC34CCC(C[C@]5(O)Cn6c(=O)ccc7nc(Cl)c(F)c5c76)(CC3)OC4)nc2N1: 4 µg/mL
- O=C1COc2ccc(CNC34CCC(C[C@]5(O)Cn6c(=O)c(F)cc7ncc(F)c5c76)(CC3)OC4)nc2N1: 0.25 µg/mL

Ask | Sample `Cc1cc(=O)n2c3c(c(F)cnc13)[C@@](O)(CC13CCC(NCc4ccc5c(n4)NC(=O)CO5)(CC1)CO3)C2` — what was its MIC?
Reply | 2 µg/mL

Ask | What does the data say about its MIC? Entry: O=C1COc2ccc(CNC34CCC(CC5(O)Cn6c(=O)cc(Cl)c7ncc(F)c5c76)(CC3)OC4)nc2N1 (racemic)
Reply | 1 µg/mL

Ask | I am curious: what MIC value has been reported for O=C1COc2ccc(CNC34CCC(CC5(O)Cn6c(=O)c(Cl)cc7ncc(F)c5c76)(CC3)OC4)nc2N1 (racemic) ?
Reply | 2 µg/mL

Ask | Form field: reported MIC of `O=C1COc2ccc(CNC34CCC(C[C@@]5(O)Cn6c(=O)c(F)cc7ncc(F)c5c76)(CC3)OC4)nc2N1`
Reply | 1 µg/mL
